experiment: in vitro; conditions: male, Beagle, dog, 20 min, 1 μM
Each entry below lists one item and its recorded Measured concentration of analyte PEA, 20 min value.
Value expressed in µM; do not type the unit.

Illustrative cases are given below, each with its answer.
MOLECULE	UNIT_OF_MEASUREMENT	READOUT_VALUE
CCCCC/C=C\C/C=C\CCCCCCCC(=O)OCCNC(=O)CCCCCCCCCCCCCCC	µM	0.091
CC/C=C\C/C=C\C/C=C\C/C=C\C/C=C\CCCC(=O)OCCNC(=O)CCCCCCCCCCCCCCC	µM	0.090
CCCCCCCCCCCCCCCC(=O)NCCOC(=O)CCC	µM	0.38
CCCCCCCCCCCCCCCC(=O)NCCOC(=O)CCC(=O)OCC(COC(=O)CCC)OC(=O)CCC (stereo not shown)	µM	0.26
CCCCCCCCCCCCCCCC(=O)NCCOC(=O)CCC(=O)OC[C@H]1O[C@@](CO)(O[C@H]2O[C@H](CO)[C@@H](O)[C@H](O)[C@H]2O)[C@@H](O)[C@@H]1O	µM	0.47
CCCCCCCCCCCCCCCC(=O)NCCOC(=O)CCC(=O)OCC(COC(=O)CCCCCCC)OC(=O)CCCCCCC (stereo not shown) [Compound I-3, PEA-Succinate-Glycerol-Di-Caprylic]	µM	0.037

Quick one: Measured concentration of analyte PEA, 20 min for CCCCCCCCCCCCCCCC(=O)NCCOC(=O)CCC(=O)OCC(O)CO (stereo not shown) ?
0.32

----------
% Remaining of Initial (n = 1), 10 min values, listed per item
test: in vitro; conditions: male, CD-1, mouse, s9, 10 min, 1 μM
The answer is to be given in %; state only the numeric part.

These solved cases illustrate the format of a correct answer.
COMPOUND	% Remaining of Initial (n = 1), 10 min, %
CC/C=C\C/C=C\C/C=C\C/C=C\C/C=C\CCCC(=O)OCCNC(=O)CCCCCCCCCCCCCCC	66
CCCCCCCCCCCCCCCC(=O)NCCOC(=O)CCC(=O)OC[C@H]1O[C@@](CO)(O[C@H]2O[C@H](CO)[C@@H](O)[C@H](O)[C@H]2O)[C@@H](O)[C@@H]1O	1.6
CCCCC/C=C\C/C=C\CCCCCCCC(=O)OCCNC(=O)CCCCCCCCCCCCCCC	87

Record request: % Remaining of Initial (n = 1), 10 min value, item CCCCCCCCCCCCCCCC(=O)NCCOC(=O)CCC(=O)OCC(COC(=O)CCCCCCC)OC(=O)CCCCCCC (stereo not shown) [Compound I-3, PEA-Succinate-Glycerol-Di-Caprylic]
82

----------
assay: in vitro; conditions: male, Sprague-Dawley, rat, 0 min, 1 μM
MEASUREMENT_KIND: Concentration (μM) of analyte PEA, 0 min
Hey, just the number and the unit after it is fine.

COMPOUND	MEASUREMENT_KIND	READOUT_VALUE
CCCCCCCCCCCCCCCC(=O)NCCOC(=O)CCC [Compound I-2]	Concentration (μM) of analyte PEA, 0 min	0.69 µM
CCCCC/C=C\C/C=C\CCCCCCCC(=O)OCCNC(=O)CCCCCCCCCCCCCCC [Compound I-6]	Concentration (μM) of analyte PEA, 0 min	0.069 µM

Turning to the following compound.
Reported Concentration (μM) of analyte PEA, 0 min for CCCCCCCCCCCCCCCC(=O)NCCOC(=O)CCC(=O)OCC(O)CO (stereo not drawn) [Compound I-9] : what is it?
0.034 µM
